// data source = ChEMBL document CHEMBL1201862

# System: SK-MEL-2
# Test Protocol: NCI tumour cell line growth inhibition, 48 h
The source made the active and inactive calls. Cut-off read from the data, not from the text of the source: active = GI50 up to about 1.1 µM and inactive = higher.
Readout Label: GI50

> print(dat)
                        structure.as.smiles  readout.label               result
1  CCN(CC)c1c(C(=O)/C=C/c2ccc(F)cc2)c(-c2ccccc2)nn(C)c1=O           GI50   4.66 µM (inactive)
2               Nc1ncc(Br)c(NCC2(CO)CCC2)n1           GI50  > 100 µM (inactive)
3  CCOc1ccc(Nc2nc(C)c(C(=O)/C=C/c3ccc(Cl)cc3Cl)s2)cc1           GI50     24 µM (inactive)
4    O=C(O)CN(c1ccc(F)cc1)S(=O)(=O)c1ccccc1           GI50  > 100 µM (inactive)
5  CC1=C(Br)C(=O)C(C)=C(Br)C1=O.Cc1c(O)c(Br)c(C)c(O)c1Br           GI50   3.53 µM (inactive)
6  COC(=O)C1=C(C(=O)OC)C2OC1c1cc3ccccc3cc12           GI50   15.4 µM (inactive)

###

# System: COLO 205
# Test Protocol: NCI tumour cell line growth inhibition, 48 h
The source made the active and inactive calls. Cut-off read from the data, not from the text of the source: active = GI50 up to about 1.1 µM and inactive = higher.
Possible outcomes: True = active, False = inactive

Compound	Class Assignment
Cc1[nH]c2ncn3nc(C(Cl)(Cl)Cl)nc3c2c1Cc1ccccc1	False
C=C1CC2CC[C@@]34C[C@@H]5O[C@@H]6C(O[C@H]7CC[C@H](CC(=O)OC8[C@@H](C)C9OC%10C[C@]%11(C[C@@H]%12O[C@@]%13(C[C@@H](C)[C@@H]%12O%11)C[C@H](C)[C@@H]%11OC%12CC(C(O)CO)OC%12C[C@@H]%11O%13)OC%10CC9O[C@H]8C[C@H]8O[C@@H](CC[C@@H]1O2)C[C@@H](C)C8=C)O[C@@H]7[C@@H]6O3)C5O4 (stereo not given in full)	True
COc1ccc(C(=O)N(C(=S)OCCOc2ccccc2)c2ccccc2)cc1	False
NC(=S)Nc1ccc2c(c1)oc1ccccc12	False
CO/N=C1\CCC2(O)C3Cc4ccc(O)c5c4C2(CCN3CC2CC2)[C@H]1O5 (stereo not given in full)	False
O=C1CC(=O)NC(NN2C(=O)/C(=C/c3ccccc3)N=C2c2ccccc2)=N1	False
CC1(C)CN=C(Nc2cccc(C(F)(F)F)c2)S1	False
N#Cc1c(-c2ccc(Cl)cc2)c(-c2ccc(Cl)cc2)nn(CCOC(=O)CCC(=O)O)c1=O	True
COc1cc(S(=O)(=O)Nc2nc(-c3ccc(N4C(=O)/C(=C/c5ccccc5)N=C4c4ccccc4)cc3)cs2)ccc1Cl	False
CCC/C(Cl)=N\OC(=O)Nc1ccc(F)cc1	False
COC(=O)C1(Cc2ccc3c(c2)CCC3)Cc2ccccc2C1O (stereo not given)	False
O=[N+]([O-])c1ccc(C2SCc3nc4ccccc4n32)cc1 (stereo not given)	False
CC(=O)O[C@H]1CCn2c3c(c(C)c21)C(=O)C(N1CC1)=C(C)C3=O	False
O=C(O)C1=C/C(=C(/c2ccccc2)c2cc(C(=O)O)c(O)c3ccccc23)c2ccccc2C1=O	False
CC(N1CCOCC1)C(O)(c1ccccc1)c1ccccn1 (stereo not given)	False
O=C1C[C@@H]2[C@@H](CCC23CCCC3)N1	False
C[C@]12CCC3[C@@H](CC[C@@H]4c5nonc5CC[C@]34C)C1CCC2=O (stereo not given in full)	False
C[C@H](NC(=O)OC1C2C=CC(O)C1CC2)c1ccccc1 (stereo not given in full)	False
c1ccc(/N=c2\snc3scc(-c4ccccc4)n23)cc1	False
CCN(CC)Cc1cc(Nc2ccnc3ccc4nn(C)nc4c23)ccc1O	False

###

Quick reference: GI50 of the listed items.
# Test system: SF-539
# Test Protocol: NCI tumour cell line growth inhibition, 48 h
The source made the active and inactive calls. Rule as the data show it: active = GI50 up to about 1.1 µM and inactive = higher.
Readout Label: GI50

> print(dat)
                                   compound  readout.label               result
1            Cc1ccc(-n2cnc(C(=N)C#N)c2N)cc1           GI50  > 100 µM (inactive)
2  CC(C)(C)OC(=O)N(CCCN)CCCCN(CCCN)C(=O)OC(C)(C)C           GI50  > 100 µM (inactive)
3     O=S1(=O)NN=C(NCc2ccc(Cl)cc2)c2ccccc21           GI50  > 100 µM (inactive)
4  O=C1c2ccccc2C(=O)c2c(O)c(O)cc(O)c21 [PURPURIN]           GI50   17.8 µM (inactive)
5  CC1=C(Cl)C[C@@H](/C(C)=C\Cl)O[C@@]1(O)C(Br)Br           GI50   33.8 µM (inactive)
6          Clc1ccc(Cl)c(NNc2cc(Cl)ccc2Cl)c1           GI50   > 10 µM (inactive)

###

# Tested on: K562
# Test Protocol: NCI tumour cell line growth inhibition, 48 h
Activity calls are given as the source filed them. Rule as the data show it: active = GI50 up to about 1.1 µM and inactive = higher.
Readout Label: GI50

> print(dat)
                                    compound                result
 1  Cc1cnc2c(c1)C(=O)N(c1ccc(Oc3ccccc3)cc1)S2(=O)=O   > 100 µM (inactive)
 2  CCOC(=O)CC/C(C)=N\n1c(Cc2ccc(Cl)cc2)n[nH]c1=O   > 100 µM (inactive)
 3  COC1=C(OC)C(=O)C(C/C=C/c2c(Cl)nc3sccn23)=C(C)C1=O    19.8 µM (inactive)
 4  Nc1ccn(CCCC(c2ccccc2)P(=O)(O)O)c(=O)n1 (configuration not stated)   > 100 µM (inactive)
 5  CCOc1ccc2c(c1)[n+]([O-])c(-c1ccc(Br)cc1)c(N)[n+]2[O-]    75.5 µM (inactive)
 6  O[C@@H]1C[C@H]2N3CC[C@@]2(c2cc4c(cc2C3)OCO4)[C@H]2O[C@@H]12   > 100 µM (inactive)
 7           O=C(/C=C/c1ccccc1)c1cc(Br)ccc1O    4.28 µM (inactive)
 8    O=C(O)CN(c1ccc(F)cc1)S(=O)(=O)c1ccccc1   > 100 µM (inactive)
 9                     N#C/C(N)=C(C#N)/N=C/N   > 100 µM (inactive)
10               NC(=O)c1cnc2sc3ccccc3n2c1=O   > 100 µM (inactive)
11  COc1ccc(/C=C2\CCC(CN(C)C)C2=O)cc1 (configuration not stated)     1.6 µM (inactive)
12  CSc1c(C#N)c(O)n(-c2ccc(Cl)cc2)c(=O)c1C(C)=O    25.5 µM (inactive)
13  CCOC(=O)/C(=N\OC)C(O)C(F)(F)F (configuration not stated)   > 100 µM (inactive)
14  Cc1ccc(C2C(Cl)C(=O)N2n2cnc3ccccc3c2=O)cc1 (configuration not stated)    52.2 µM (inactive)
15  C=C(C(=O)OC)N1C(=O)CC(C)C1=O (configuration not stated)    2.87 µM (inactive)
16  C/C(CC(=O)Nc1cc(Cl)c(Cl)cc1Cl)=N\NS(=O)(=O)c1ccc(C)cc1    35.5 µM (inactive)
17  S=c1[nH]c(=S)c2cc(Sc3ccc4[nH]c(=S)[nH]c(=S)c4c3)ccc2[nH]1    49.1 µM (inactive)
18  CC(=O)N/C(=C\c1ccccc1/C=C(\NC(C)=O)c1nc2cc(C)c(C)cc2[nH]1)c1nc2cc(C)c(C)cc2[nH]1    28.6 µM (inactive)
19                 Cc1ccc(-n2nnc(C#N)c2O)cc1   > 100 µM (inactive)
20  CC1OC(OCC2OC(Oc3c(-c4ccc(O)cc4)oc4cc(O)cc(O)c4c3=O)C(OC3OC(C)C(O)C(O)C3O)C(O)C2O)C(O)C(O)C1O (configuration not stated)  > 31.6 µM (inactive)
21  CCN(CC)C(=O)Cc1c(C(=O)N(CC)CC)c(=O)nc2sccn12   > 100 µM (inactive)
22  O=NN1C(c2ccccc2)CC(=NO)CC1c1ccccc1 (configuration not stated)    43.8 µM (inactive)

###

Quick reference: GI50 of the listed items.
# System: CAKI-1
# Test Protocol: NCI tumour cell line growth inhibition, 48 h
Activity calls are given as the source filed them. Cut-off read from the data, not from the text of the source: active = GI50 up to about 1.1 µM and inactive = higher.
Readout Label: GI50

> print(dat)
                                   molecule               result
1  Cc1cnc2c(c1)C(=O)N(c1ccc(Oc3ccccc3)cc1)S2(=O)=O  > 100 µM (inactive)
2              C[Si](C)(C)CNC(=O)OCc1ccccc1  > 100 µM (inactive)
3  O=C(OCc1ccccc1)N1c2cc([N+](=O)[O-])ccc2C(=O)N2CCC[C@H]2C1O (stereo not given in full)  > 100 µM (inactive)
4  C[C@H](CCC1=NCCN1)[C@H]1CC[C@H]2[C@@H]3[C@H](O)C[C@@H]4C[C@H](O)CC[C@]4(C)[C@H]3CC[C@]12C     24 µM (inactive)
5  Clc1cccc(Cl)c1C1ON=C(c2ccccc2)N1C12CC3CC(CC(C3)C1)C2 (stereo not given)   40.9 µM (inactive)
